# cytotoxicity at 10 µM listing for each entry below
- ASSAY_REMARKS: Toxicity liver stage against HepG2, at 10uM
- Type: cell-based
- Design: test concentration 10 uM, cell line HepG2-A16-CD81EGFP
- STUDY_CONDITIONS: human, HepG2-A16-CD81EGFP cells; read-out: INHIBITION
The figure you give is taken to be in %; do not add the unit.

Sample Cc1nc(NC(=O)CCN2C(=O)c3ccccc3NC2C(C)C)sc1C (centres undefined) — what was its cytotoxicity at 10 µM?
0.308

Would you mind telling me what cytotoxicity at 10 µM value was observed for CCC1CCCCCN1C(=O)c1coc(S(=O)(=O)N(C)C)c1 (centres undefined) ?
1.66

Query (compound): CN(Cc1ccc(N(C)C)cc1)C(=O)c1cc2c([nH]c1=O)CCCC2=O ; field requested: cytotoxicity at 10 µM
-3.34

# lookup: cytotoxicity at 10 µM of CCN1CCN(C2CCN(Cc3nc4ccccc4o3)CC2)C1=O
5.61

====

- ASSAY_REMARKS: Toxicity liver stage against HepG2, at 10uM
- Assay type: cell-based
- Design: test concentration 10 uM, cell line HepG2-A16-CD81EGFP
- STUDY_CONDITIONS: human, HepG2-A16-CD81EGFP cells; read-out: INHIBITION
PROPERTY_LABEL: cytotoxicity at 10 µM (%)
Only the number, expressed in %, is required.

Guide cases for cytotoxicity at 10 µM, answers given:
>>> df
                                   compound         property_label  unit_abbrev  obs_value
0  COc1ccccc1NC(=O)Cn1c(=O)nc(N)c2cc(C)sc21  cytotoxicity at 10 µM            %       3.45
1  Cc1ccc(-n2ncc3c2CCCC3N)cc1C (configuration not stated)  cytotoxicity at 10 µM            %      -1.97
2  COC(=O)c1ccc(C2SC(C)=Nc3c2c(=O)[nH]n3C2CCCC2)cc1 (configuration not stated)  cytotoxicity at 10 µM            %       6.84
3     Cc1noc(C)c1CN1CCOCC12CCN(c1cnccn1)CC2  cytotoxicity at 10 µM            %       -101
4  O=C(Nc1cccnc1N1CCCC1)C1CCS(=O)(=O)C1 (configuration not stated)  cytotoxicity at 10 µM            %      -13.1

Item under review: CO[C@H]1CCN(C(=O)c2ccsc2)[C@@H]2CN(CC3CC3)C[C@H]12 . Reported cytotoxicity at 10 µM?
1.64

Fill in the blank: the reported cytotoxicity at 10 µM of Cc1ccccc1S(=O)(=O)N[C@@H]1CC[C@@H](N2CCNC(=O)C2)[C@@H]1O is ____.
4.29

====

Examples of compounds with documented cytotoxicity at 10 µM follow.
- ASSAY_REMARKS: Toxicity liver stage against HepG2, at 10uM
- Format: cell-based
- Set-up: test concentration 10 uM, cell line HepG2-A16-CD81EGFP
- STUDY_CONDITIONS: human, HepG2-A16-CD81EGFP cells; read-out: INHIBITION
Provide only the numeric value, understood in %.

Known cytotoxicity at 10 µM results, listed for orientation:
                                   compound         property_label  obs_value
0  O=C(NCCc1ccccc1)NCC(O)c1cccc(F)c1 (configuration not stated)  cytotoxicity at 10 µM      -7.24
1  Cc1ncc(CO)c(CN2CCCC2c2nc3c(C)cccc3[nH]2)c1O (configuration not stated)  cytotoxicity at 10 µM      0.414
2        O=C(CNCCn1cccn1)NCC1(c2ccccc2)CCC1  cytotoxicity at 10 µM      -26.7
3            O=C(Nc1cc(-c2cccnc2)no1)C1CCC1  cytotoxicity at 10 µM       2.82
4  Cc1cnn(C2CCCN(C(=O)CCCc3ccccn3)C2)c1 (configuration not stated)  cytotoxicity at 10 µM      -11.2
5              COc1ccnc(N(C)Cc2c(C)noc2C)n1  cytotoxicity at 10 µM      -3.84
6  CC(C(=O)N1CCCC1)S(=O)(=O)Cc1noc(C(C)(C)C)n1 (configuration not stated)  cytotoxicity at 10 µM       -1.1
7  CC(C)CN1CCOC[C@H](Oc2ccc(S(C)(=O)=O)cc2)C1  cytotoxicity at 10 µM      -1.67

Looking for the measured cytotoxicity at 10 µM of Cc1cc2nc(C(C)C)cc(NCCNc3ncccc3C)n2n1 , can you help?
16.9

Can you look up the measured cytotoxicity at 10 µM of CC(C)CN1C(=O)CO[C@@H]2CN(C(=O)N3CCOCC3)C[C@H]21 for me?
-1.68

Entry CCS(=O)(=O)N1C[C@@H](O)[C@H](N(C)Cc2ccc(F)cc2)C1 : reported cytotoxicity at 10 µM = ?
4.54

Any idea what cytotoxicity at 10 µM was measured for CC1=CC[C@@H]2CN(C(=O)c3ccc(-c4cc[nH]n4)cc3)C[C@@H]2C1 ?
5.15
